system tested: Human SARS Coronavirus Spike Protein (Receptor Binding Domain) rabbit Fc (Sino 40150-V31B2) (Human SARS Coronavirus), P59594
assay protocol: Luminex bead assay, antigen on microspheres, antibody supernatant
test settings: remark: other sources report otherwise
// reported Binding signal (MFI) per item
Write the number in MFI without appending the unit.

1) mAb10998 (antibody, V domains shown) VH: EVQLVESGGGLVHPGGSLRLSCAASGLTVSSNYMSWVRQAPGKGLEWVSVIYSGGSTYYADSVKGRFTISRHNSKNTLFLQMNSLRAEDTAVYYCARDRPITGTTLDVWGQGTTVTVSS VL: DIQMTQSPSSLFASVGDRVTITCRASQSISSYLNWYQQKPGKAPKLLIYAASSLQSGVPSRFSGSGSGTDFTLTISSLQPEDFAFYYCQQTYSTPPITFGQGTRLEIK = 29
2) mAb11006 (antibody, V domains shown) VH: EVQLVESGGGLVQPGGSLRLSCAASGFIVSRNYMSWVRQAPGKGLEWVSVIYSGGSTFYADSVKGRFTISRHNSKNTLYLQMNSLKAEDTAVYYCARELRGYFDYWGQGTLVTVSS VL: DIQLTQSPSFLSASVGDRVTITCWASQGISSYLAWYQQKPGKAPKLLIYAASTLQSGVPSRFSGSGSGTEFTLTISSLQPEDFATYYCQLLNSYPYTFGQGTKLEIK = 615
3) mAb11008 (antibody, V domains shown) VH: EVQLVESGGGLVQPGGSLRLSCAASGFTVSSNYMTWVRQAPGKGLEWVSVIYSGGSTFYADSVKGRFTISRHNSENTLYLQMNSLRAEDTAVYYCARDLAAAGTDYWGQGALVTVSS VL: DIQLTQSPSFLSASVGDRVTITCWASQGISSYLAWYQQKPGKAPKLLIYAASTLQSGVPSRFSGSGSGTEFTLTISSLQPDDFATYYCQHLNSYLYTFGQGTKLEIK = 120

Below: the item to evaluate.
Please report the recorded Binding signal (MFI) for mAb11004 (antibody, V domains shown) VH: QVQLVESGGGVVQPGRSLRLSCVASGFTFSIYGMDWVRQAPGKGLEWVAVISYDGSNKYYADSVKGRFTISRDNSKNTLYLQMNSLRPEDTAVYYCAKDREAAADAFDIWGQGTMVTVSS VL: DIQMTQSPSSVSASVGDRVTITCRASQGISSWLAWYQQKPGKAPKLLIYAASSLHSGVPSRFSGSGSGTDFTLTISSLQPEDFATYYCQQANSFRLTFGGGTKVEIK .
5520
